measured target: MMP-3 (Homo sapiens, UniProt P08254)
Construct: Truncated Prostromelysin-257 was expressed in a soluble form in E.coli; made in house; host or cells: E. coli
Sequence (P08254 100-274 limits assumed): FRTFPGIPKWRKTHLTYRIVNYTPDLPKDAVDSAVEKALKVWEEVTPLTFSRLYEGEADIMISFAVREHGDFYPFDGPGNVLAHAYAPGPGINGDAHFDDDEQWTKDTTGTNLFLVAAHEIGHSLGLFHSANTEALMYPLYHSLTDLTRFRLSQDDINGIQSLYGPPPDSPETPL
experiment notes: Primary Thiopeptilide MMP-3 Inhibition Assay
Type: biochemical
test conditions: pH 6.5; 13 nM stromelysin; x (n) = average of n determinations; read-out: MMP-3 Thiopep. IC50
pIC50: −log10 of the molar value.
reported endpoint: pIC50

// below: answered compounds
compound="COc1ccc(-c2ccc(C(=O)CC(CCCc3ccccc3)C(=O)O)cc2)cc1 (stereo not drawn)" measured_target="MMP-3 (Homo sapiens, UniProt P08254)" readout_value=6.66
compound="O=C(CC(CCc1ccccc1)C(=O)O)c1ccc(-c2ccc(Cl)cc2)cc1 (stereo not drawn)" measured_target="MMP-3 (Homo sapiens, UniProt P08254)" readout_value=6.95
compound="C#CCC(CC(=O)c1ccc(-c2ccc(Cl)cc2)cc1)C(=O)O (stereo not drawn)" measured_target="MMP-3 (Homo sapiens, UniProt P08254)" readout_value=6.00

1. O=C(CC(CCc1ccccc1I)C(=O)O)c1ccc(-c2ccc(Cl)cc2)cc1 (stereo not drawn)
2. O=C(CC(SCc1ccccc1)C(=O)O)c1ccc(-c2ccc(Cl)cc2)cc1 (stereo not drawn)
Ask: Returns: the argument ( 1 or 2 ) having the larger pIC50. Output the label that corresponds to your choice.
Reply: 2

1. COc1ccccc1SCC(CC(=O)c1ccc(-c2ccc(Cl)cc2)cc1)C(=O)O (stereo not drawn)
2. O=C(O)[C@@H]1[C@@H](C(=O)c2ccc(-c3ccc(Cl)cc3)cc2)CC[C@H]1Sc1ccc(F)cc1 (relative stereo)
Ask: Lower value of pIC50 belongs to which: 1 or 2 ? Output the label that corresponds to your choice.
Reply: 1
(1: 6.52, 2: 7.14)

====

measured target: MMP-3 (Homo sapiens, UniProt P08254)
Construct: Truncated Prostromelysin-257 was expressed in a soluble form in E.coli; made in house; host or cells: E. coli
experiment notes: Primary Thiopeptilide MMP-3 Inhibition Assay
Format: biochemical
test conditions: pH 6.5; 13 nM stromelysin; x (n) = average of n determinations; read-out: MMP-3 Thiopep. IC50
reported endpoint: IC50 (µM)

compound="O=C(CC(CSC1CCCCC1)C(=O)O)c1ccc(-c2ccc(Cl)cc2)cc1 (stereo not shown) [Example 214]" readout_value=0.17
compound="O=C(CC(CSc1ccncc1)C(=O)O)c1ccc(-c2ccc(Cl)cc2)cc1 (stereo not shown) [Example 222]" readout_value=0.61
compound="O=C(CC(CSc1ccc(O)cc1)C(=O)O)c1ccc(-c2ccc(Cl)cc2)cc1 (stereo not shown) [Example 204]" readout_value=0.213
compound="O=C(CC(C(=O)O)N1CCSCC1)c1ccc(-c2ccc(Cl)cc2)cc1 (stereo not shown) [Example 259]" readout_value=2.6
compound="O=C(CC(CSc1cccc2ccccc12)C(=O)O)c1ccc(-c2ccc(Cl)cc2)cc1 (stereo not shown) [Example 227]" readout_value=0.22
compound="COC(=O)c1ccccc1CCC(CC(=O)c1ccc(-c2ccc(Cl)cc2)cc1)C(=O)O (stereo not shown) [Example 142]" readout_value=0.31
compound="O=C(CC(CCCc1ccccc1)C(=O)O)c1ccc(-c2ccc(OCCO)cc2)cc1 (stereo not shown) [Example 54]" readout_value=0.19
compound="CSc1ccc(-c2ccc(C(=O)CC(CCCc3ccccc3)C(=O)O)cc2)cc1 (stereo not shown) [Example 51]" readout_value=0.17

A. CC(C)C[C@@H](CC(=O)c1ccc(-c2ccc(Cl)cc2)cc1)C(=O)O [Example 2]
B. CNC(=O)[C@@H]1CCCN1C(=O)C(CC(=O)c1ccc(-c2ccc(Cl)cc2)cc1)CC(C)C (stereo partly shown) [Example 346]
C. CCCCCCOc1ccc(-c2ccc(C(=O)CC(CCCc3ccccc3)C(=O)O)cc2)cc1 (stereo not shown) [Example 88]
D. CCCCCCCC(CC(=O)c1ccc(-c2ccc(Cl)cc2)cc1)C(=O)O (stereo not shown) [Example 122]
E. O=C(CC(CCCc1ccccc1)C(=O)O)c1ccc(-c2ccsc2)cc1 (stereo not shown) [Example 76]
Ask: Arrange items by their IC50 values in increasing order. I'd appreciate it if you listed the labels in the requested order.
Reply: C, A, D, E, B
(C: 0.168 µM, A: 0.27 µM, D: 0.403 µM, E: 1 µM, B: 6 µM)

a. C=Cc1ccc(-c2ccc(C(=O)CC(CCCc3ccccc3)C(=O)O)cc2)cc1 (stereo not shown) [Example 55]
b. O=C(CC(Cc1ccccc1)C(=O)O)c1ccc(-c2ccc(Cl)cc2)cc1 (stereo not shown) [Example 131]
c. O=C(CC(Sc1ccccc1)C(=O)O)c1ccc(-c2ccc(Cl)cc2)cc1 (stereo not shown) [Example 251]
Ask: Arrange items by their IC50 values in increasing order. I'd appreciate it if you listed the labels in the requested order.
Reply: a, b, c
(a: 0.17 µM, b: 0.31 µM, c: 0.64 µM)
